biological target: T1, human plasma kallikrein (human, UniProt P03952 20-390; P03952 391-638); experiment: ELISA, biotinylated pKal signal over streptavidin background
T1 construct: two disulfide-linked chains; NP_000883.2; also called pKal; hpKal
T1 sequence (P03952 20-390 limits assumed, chain 1 of 2): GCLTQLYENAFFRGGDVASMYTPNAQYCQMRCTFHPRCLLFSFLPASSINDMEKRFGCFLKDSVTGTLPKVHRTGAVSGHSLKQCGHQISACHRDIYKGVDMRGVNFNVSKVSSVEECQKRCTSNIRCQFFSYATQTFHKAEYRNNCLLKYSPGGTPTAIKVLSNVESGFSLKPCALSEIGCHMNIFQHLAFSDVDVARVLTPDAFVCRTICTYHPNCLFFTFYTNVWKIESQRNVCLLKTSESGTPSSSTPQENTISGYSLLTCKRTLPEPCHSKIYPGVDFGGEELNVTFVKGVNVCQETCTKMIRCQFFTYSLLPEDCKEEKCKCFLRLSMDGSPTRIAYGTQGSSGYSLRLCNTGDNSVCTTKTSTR
T1 sequence (P03952 391-638 limits assumed, chain 2 of 2): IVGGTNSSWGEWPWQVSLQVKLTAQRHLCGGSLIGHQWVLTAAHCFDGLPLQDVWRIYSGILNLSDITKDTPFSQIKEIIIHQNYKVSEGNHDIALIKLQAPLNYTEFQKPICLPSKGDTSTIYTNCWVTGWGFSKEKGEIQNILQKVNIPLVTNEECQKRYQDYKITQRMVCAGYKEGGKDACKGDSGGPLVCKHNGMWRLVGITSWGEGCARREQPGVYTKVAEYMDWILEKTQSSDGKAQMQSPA
Classify: label 1 when ELISA (T/B) is strictly less than 8; label 0 when ELISA (T/B) is not.

| Binder | Class Assignment |
| --- | --- |
| M6-A08 (Fab, V domains shown) VH: EVQLLESGGGLVQPGGSLRLSCAASGFTFSPYPMQWVRQAPGKGLEWVSSISSSGGMTEYADSVKGRFTISRDNSKNTLYLQMNSLRAEDTAVYYCARDDYGGKGGAFDIWGQGTMVTVSS VL: DIQMTQSPSSLSASVGDRVTITCRASQRISFYLNWFQQKPGKAPNLLIYGASSLQSGVPSRFSGSGSGTDFTLTISSLQPKDFGTYYCQQTFSTPNTFGQGTKLEIK | label 0 |
| M9-F09 (Fab, V domains shown) VH: EVQLLESGGGLVQPGGSLRLSCAASGFTFSSYPMGWVRQAPGKGLEWVSRISSSGGMTIYADSVKGRFTISRDNSKNTLYLQMNSLRAEDTAVYYCARDDWNVGMDVWGQGTTVTVSS VL: DIQMTQSPSSLSASVGDRVTITCRASQSISSYLNWYQQKPGKAPKLLIYAASSLQSGVPSKFSGSGSGTDYTLTISSLQPEDFATYYCQQTYTTPWTFGQGTKVEIK | label 1 |
| M10-B09 (Fab, V domains shown) VH: EVQLLESGGGLVQPGGSLRLSCAASGFTFSWYEMSWVRQAPGKGLEWVSRIWPSGGVTMYADSVKGRFTISRDNSKNTLYLQMNSLRAEDTAVYYCTRTSITTVGMDVWGQGTTVTVSS VL: DIQMTQSPSSLSASVGDGVTITCRASQSISTYLNWYQQRPGKAPKLLIYGASSLQSGVPSRFSGSGSGTDFTLTISSLQREDFATYYCQQSFSTPWTFGQGTRVEIK | label 0 |
| M76-G06 (Fab, V domains shown) VH: EVQLLESGGGLVQPGGSLRLSCAASGFTFSGYIMHWVRQAPGKGLEWVSWIYPSGGWTEYADSVKGRFTISRDNSKNTLYLQMNSLRAEDTAVYYCARDAPGVGAIDYWGQGTLVTVSS VL: DIQMTQSPSSLSASVRDRVTITCRASQSISTYLNWYQQKPGEAPKLLVFAASSLQSGVPSRFSGSGSGTDFTLSISSLQPEDFATYYCQQSYSTPHTFGQGAKVEIK | label 0 |
| M29-G08 (Fab, V domains shown) VH: EVQLLESGGGLVQPGGSLRLSCAASGFTFSYYHMWWVRQAPGKGLEWVSGISPSGGFTFYADSVKGRFTISRDNSKNTLYLQMNSLRAEDTAVYYCARDYYYDSSGYSPLGYWGQGTLVTVSS VL: DIQMTQSPATLSASPGETVTLSCRASQNIGNDVAWYRQRPGQAPRLLIHHASTRAYGIPARLRGSGSATEFTLTITSLEPEDFAIYYCQQFYDWPAHTFALGTRLEIKR | label 0 |

Query: Threshold test, ELISA (T/B) < 8: M29-E02 (Fab, V domains shown) VH: EVQLLESGGGLVQPGGSLRLSCAASGFTFSRYPMMWVRQAPGKGLEWVSVIYPSGGDTFYADSVKGRFTISRDNSKNTLYLQMNSLRAEDTAVYYCASGDDYLWEAAVYWGQGTLVTVSS VL: QSVLTQPPSVSEAPRQRVTISCSGSSSNIGNNAVSWYQQLPGKAPKLLIYYDDLLPSGVSDRFSGSKSGTSASLAISGLRSEDEADYYCAAWDDSLNGFVFGTGTKVTVL
Reply: label 1

Query: Threshold test, ELISA (T/B) < 8: M11-G09 (Fab, V domains shown) VH: EVQLLESGGGLVQPGGSLRLSCAASGFTFSLYNMTWVRQAPGKGLEWVSYIYPSGGGTHYADSVKGRFTISRDNSKNTLYLQMNSLRAEDTAVYYCARDTGFWSADAFDIWGQGTMVTVSS VL: DIQMTQSPSSLSASVGDRVTITCRTSQGINHYLNWYQQKPGKAPKILVFAASELQTGVPSRFSGTGSGTSYTLTITSLQPEDVATYYCQQTYTSPYTFGQGTKLEVK
Reply: label 0

Query: Threshold test, ELISA (T/B) < 8: M10-A12 (Fab, V domains shown) VH: EVQLLESGGGLVQPGGSLRLSCAASGFTFSLYLMHWVRQAPGKGLEWVSSIYSSGGFTTYADSVKGRFTISRDNSKNTLYLQMNSLRAEDTAVYYCARDTDYGMDVWGQGTTVTVSS VL: DIQMTQSPLSLSAFVGDRVTITCRASRDISVYLNWYQLKSGKAPKLLIYGASSLQSGVPSRFSGSGSGTDFTLTITSLQPEDFATYYCQQSYSIPFTFGGGTKVETK
Reply: label 0

Query: Threshold test, ELISA (T/B) < 8: M10-G09 (Fab, V domains shown) VH: EVQLLESGGGLVQPGGSLRLSCAASGFTFSQYGMQWVRQAPGKGLEWVSSIRSSGGATRYADSVKGRFTISRDNSKNTLYLQMNSLRAEDTAVYYCARDGYYDSSGYPDYWGQGTLVTVSS VL: DIQMTQSPSSLSASVGDSVTITCRASQSISGYINWYQQKAGKAPKLLIYAASSLQSGVPSRFSGSGSGTHFTLTISSLQPEDFATYYCQQYVSYPFTFGPGTKVDIK
Reply: label 1

Query: Threshold test, ELISA (T/B) < 8: M12-C10 (Fab, V domains shown) VH: EVQLLESGGGLVQPGGSLRLSCAASGFTFSDYEMHWVRQAPGKGLEWVSGISPSGGKTQYADSVKGRFTISRDNSKNTLYLQMNSLRAEDTAVYYCARDLKWGGRGSPDWYFDLWGRGTLVTVSS VL: QSALTQPPSVSVSPGQTASITCSGDKLGEKYVSWYQQKPGQSPVVVIYQDNKRPSGIPERFSGSNSGNTATLTISGTQAVDEADYYCQAWDSYTVVFGGGSKLTVLG
Reply: label 0
